Value source: patent US4727080A

- Test system: Salmonella typhimurium AMES 98
- ASSAY PROCEDURE: "In vitro" MIC, Salmonella typhimurium AMES 98
- Type: cell-based
- ASSAY SETUP: Salmonella enterica; Salmonella typhimurium AMES 98; dextrose agar, 37° C., 20 hours; read-out: "In vitro" MIC
ASSAY READOUT: MIC (µg/mL)
Answers are plain numbers, in µg/mL.

• Cn1cc(C(=O)O)c(=O)c2cc(F)c(-n3cccc3)cc21 = 4
• CCNn1cc(C(=O)O)c(=O)c2cc(F)c(-n3cccc3)cc21 = 0.062
• O=C(O)c1cn(CCO)c2cc(-n3cccc3)c(F)cc2c1=O = 0.25
• O=C(O)c1cn(CC2CC2)c2cc(-n3cccc3)c(F)cc2c1=O = 0.25
• CNn1cc(C(=O)O)c(=O)c2cc(F)c(-n3cccc3)cc21 = 0.125

Hi there! I need MIC for each item below, if you can.
1. O=C(O)c1cn(C2CC2)c2cc(-n3cccc3)c(F)cc2c1=O
2. CCCn1cc(C(=O)O)c(=O)c2cc(F)c(-n3cccc3)cc21

result:
1. 1
2. 1
